- TARGET: Acid ceramidase (Homo sapiens, UniProt Q13510)
- Sequence (Q13510 22-142 limits assumed, stated change not applied): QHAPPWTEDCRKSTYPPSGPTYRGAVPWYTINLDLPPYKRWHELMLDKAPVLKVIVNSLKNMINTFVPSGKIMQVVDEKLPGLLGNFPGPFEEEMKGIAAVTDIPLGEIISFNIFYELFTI
- Sequence (Q13510 143-395 limits assumed, stated change not applied): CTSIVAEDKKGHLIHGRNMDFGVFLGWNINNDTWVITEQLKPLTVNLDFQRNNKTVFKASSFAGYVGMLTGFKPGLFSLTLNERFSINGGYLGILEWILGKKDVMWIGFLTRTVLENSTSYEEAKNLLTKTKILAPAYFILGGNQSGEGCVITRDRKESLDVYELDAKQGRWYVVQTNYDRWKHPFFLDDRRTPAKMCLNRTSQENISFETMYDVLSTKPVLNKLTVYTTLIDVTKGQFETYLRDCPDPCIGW
- EXPERIMENT_SUMMARY: Inhibition of human C-terminal His-tagged acid ceramidase variant 1 expressed in HEK293 cells using fluorogenic substrate Rbm-14-12 preincubated for 30 mins followed by substrate addition measured after 1 hr by fluorogenic assay
- Format: cell-based
pIC50: −log10 of the molar value.

{"SMI": "CCCCCCNC(=O)n1ncc2ccccc21", "VALUE_COMPARATOR": "=", "pIC50": 8.00}
{"SMI": "O=C(NCCCCc1ccccc1)N1C(=O)c2ccccc2C1=O", "VALUE_COMPARATOR": "=", "pIC50": 8.62}
{"SMI": "O=C(NCCCCc1ccccc1)Nc1nc2ccccc2[nH]1", "VALUE_COMPARATOR": "<", "pIC50": 5.00}
{"SMI": "CCCCCCNC(=O)N1C(=O)c2ccccc2C1=O", "VALUE_COMPARATOR": "=", "pIC50": 8.15}
{"SMI": "O=C(NCCCCc1ccccc1)n1nnc2ccccc21", "VALUE_COMPARATOR": "=", "pIC50": 8.68}
{"SMI": "CCCCCCNC(=O)Nc1nc2ccccc2o1", "VALUE_COMPARATOR": "<", "pIC50": 5.00}
{"SMI": "O=C(NCCCCc1ccccc1)Nc1nc2ccccc2s1", "VALUE_COMPARATOR": "<", "pIC50": 5.00}
{"SMI": "O=C(NCCCCc1ccccc1)n1c(=O)[nH]c2ccccc21", "VALUE_COMPARATOR": "<", "pIC50": 5.00}
{"SMI": "CCCCCCNC(=O)Nc1nc2ccccc2s1", "VALUE_COMPARATOR": "<", "pIC50": 5.00}
